test system: ryegrass, Italian (Italian ryegrass, Lolium multiflorum); experiment: Test A preemergence, Italian ryegrass; assay type: in vivo; conditions: pre-emergence, 240 h, 125 g ai/ha, 0 to 100 scale, 10 days, read-out: Plant response rating, Ryegrass, Italian
Measured pest or weed control at 125 g/ha, listed per entry for reference.
Your answer should be a plain number; it is taken to be in %.

Molecule: Cc1cc(C)c(N2CCC(OC3CCCC3)C2=O)cc1NS(=O)(=O)C(F)(F)F (stereo not shown) [Compound 6]
Readout Number: 90

Exercise: # return recorded pest or weed control at 125 g/ha for input Cc1cc(C)c(N2CCC(OC3CC3)C2=O)cc1NS(=O)(=O)C(F)(F)F (stereo not shown) [Compound 3]
Solution: 100

Exercise: # return recorded pest or weed control at 125 g/ha for input C#CCOC1CCN(c2cc(NS(=O)(=O)C(F)(F)F)c(C)cc2C)C1=O (stereo not shown) [Compound 1]
Solution: 100

Exercise: # return recorded pest or weed control at 125 g/ha for input Cc1cc(C)c(N(COC(=O)C(C)(C)C)S(=O)(=O)C(F)(F)F)cc1N1CCC(OC2CC2)C1=O (stereo not shown) [Compound 7]
Solution: 100

---

test system: goosegrass (Eleusine indica); assay: Test C preemergence, goosegrass; assay type: in vivo; details: 31 g ai/ha Preemergence; 0 is no effect, 100 is complete control
Measured Property: Plant response rating (0 to 100 scale), Goosegrass
# output: bare number, no unit

Exercise: # return recorded Plant response rating (0 to 100 scale), Goosegrass for input Cc1c(N2CCCC(OC3CC3)C2=O)cc(N(COC(=O)C(C)(C)C)S(=O)(=O)C(F)(F)F)c(C)c1F (stereo not drawn) [Compound 37]
Solution: 50

Exercise: # return recorded Plant response rating (0 to 100 scale), Goosegrass for input Cc1c(NS(=O)(=O)C(F)(F)F)cc(N2CCC(OC3CC3)C2=O)c(C)c1F (stereo not drawn) [Compound 26]
Solution: 90

Exercise: # return recorded Plant response rating (0 to 100 scale), Goosegrass for input Cc1cc(C)c(N(C(=O)OC(C)C)S(=O)(=O)C(F)(F)F)cc1N1CCC(OC2CC2)C1=O (stereo not drawn) [Compound 18]
Solution: 0

---

Measured Oat, Wild plant response rating, listed per entry for reference.
system: oat, wild (wild oat, Avena fatua); test: Test C postemergence, wild oat; format: in vivo; settings: 125 g ai/ha Postemergence; visual injury, 0 to 100 scale (0 no effect, 100 complete control)
# output: bare number, no unit

Below: 3 compounds and their reported Oat, Wild plant response rating.
Compound: Cc1c(N2CCC(OC3CCC3)C2=O)cc(N(C(=O)OCC(C)C)S(=O)(=O)C(F)(F)F)c(C)c1C (stereo not shown)
Oat, Wild plant response rating: 20
//
Compound: Cc1cc(C)c(N2CCC(OCC3CCCC3)C2=O)cc1NS(=O)(=O)C(F)(F)F (stereo not shown)
Oat, Wild plant response rating: 10
//
Compound: Cc1cc(C)c(N(COC(=O)C(C)(C)C)S(=O)(=O)C(F)(F)F)cc1N1CCC(OCC2CC(F)(F)C2)C1=O (stereo not shown)
Oat, Wild plant response rating: 30

Exercise: # return recorded Oat, Wild plant response rating for input Cc1cc(C)c(N(COC(=O)C(C)(C)C)S(=O)(=O)C(F)(F)F)cc1N1CCC(OCC2CC2(F)F)C1=O (stereo not shown)
Solution: 80

Exercise: # return recorded Oat, Wild plant response rating for input Cc1c(N2CCC(OC3CC3)C2=O)cc(N(C(=O)OCC(C)C)S(=O)(=O)C(F)(F)F)c(C)c1C (stereo not shown)
Solution: 50

Exercise: # return recorded Oat, Wild plant response rating for input C=C(C)COC1CCN(c2cc(NS(=O)(=O)C(F)(F)F)c(C)cc2C)C1=O (stereo not shown)
Solution: 90

Exercise: # return recorded Oat, Wild plant response rating for input Cc1c(NS(=O)(=O)C(F)(F)F)cc(N2CCC(OCC3CC3)C2=O)c(C)c1F (stereo not shown)
Solution: 40
